# Test system: VDR homodimer (NR concentration 270 nM)
# procedure summary: PBM binding z-score (relative to random genomic background probes); higher = stronger binding; sequences stand for … in GC…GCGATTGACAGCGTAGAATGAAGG
Entry flag: label 1 if PBM binding z-score reaches 0.2; label 0 if it does not.

{"ordered residues": "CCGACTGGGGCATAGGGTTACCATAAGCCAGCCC", "category label": "label 0"}
{"ordered residues": "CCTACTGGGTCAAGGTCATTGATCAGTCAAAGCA", "category label": "label 1"}
{"ordered residues": "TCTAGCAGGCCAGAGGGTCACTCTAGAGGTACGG", "category label": "label 1"}
{"ordered residues": "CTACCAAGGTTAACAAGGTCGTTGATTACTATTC", "category label": "label 1"}
{"ordered residues": "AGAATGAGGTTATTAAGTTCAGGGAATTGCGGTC", "category label": "label 1"}
{"ordered residues": "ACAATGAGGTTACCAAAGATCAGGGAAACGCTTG", "category label": "label 1"}
{"ordered residues": "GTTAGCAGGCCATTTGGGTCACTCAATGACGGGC", "category label": "label 1"}
{"ordered residues": "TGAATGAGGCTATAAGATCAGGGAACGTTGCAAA", "category label": "label 0"}
{"ordered residues": "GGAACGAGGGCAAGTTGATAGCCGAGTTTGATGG", "category label": "label 1"}
{"ordered residues": "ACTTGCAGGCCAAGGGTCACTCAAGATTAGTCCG", "category label": "label 1"}

## Input For this sequence, is measured PBM binding z-score 0.2 or higher? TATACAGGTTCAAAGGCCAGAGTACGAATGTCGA
## Output label 1

## Input For this sequence, is measured PBM binding z-score 0.2 or higher? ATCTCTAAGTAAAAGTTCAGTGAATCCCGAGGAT
## Output label 1

## Input For this sequence, is measured PBM binding z-score 0.2 or higher? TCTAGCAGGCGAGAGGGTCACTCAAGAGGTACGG
## Output label 0

## Input For this sequence, is measured PBM binding z-score 0.2 or higher? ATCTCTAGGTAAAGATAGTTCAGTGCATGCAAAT
## Output label 1

## Input For this sequence, is measured PBM binding z-score 0.2 or higher? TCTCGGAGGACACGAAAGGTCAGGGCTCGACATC
## Output label 1

## Input For this sequence, is measured PBM binding z-score 0.2 or higher? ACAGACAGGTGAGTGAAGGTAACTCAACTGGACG
## Output label 0
